Tested on: HOP-92 NSCLC
Assay: NCI tumour cell line growth inhibition, 48 h
Where a SMILES comes first, the peptide text is derived from it. [ ]: non-standard residue; d: D form.
value_kind: TGI

Provide each entry's TGI from the list below.
1. O=C(CC(Cl)=C(Cl)Cl)c1ccccc1
2. CC(=O)N(C(C)=O)c1cc2c3c(c1)CCCN3CCC2
3. CC1=C(C(=O)N[C@@H](CC(C)C)C(=O)O)N2C(=O)[C@@H](NC(=O)C(N)c3ccccc3)[C@H]2SC1 (stereo partly drawn)
4. COc1ccccc1CNCCCN1C(=O)c2ccc3c4c(ccc(c24)C1=O)C(=O)N(CCCN)C3=O
5. O=C(NC(=Nc1ccccc1)SCCSC(=Nc1ccccc1)NC(=O)c1cccs1)c1cccs1
6. O=C(OCCNC(=O)N1CC1)OCCNC(=O)N1CC1

Out:
1: > 100 µM; 2: > 10 µM; 3: > 100 µM; 4: 5.65 µM; 5: 46.1 µM; 6: > 10 µM

Provide each entry's TGI from the list below.
1. CN(C)c1ccc(C=C2C(=O)NC(=S)NC2=O)c2ccccc12
2. CC(C)C[C@H](NC(=O)[C@H](CC(C)C)NC(=O)[C@@H](Cc1c[nH]c2ccccc12)NC(=O)[C@H](Cc1ccccc1)NC(=O)[C@@H](Cc1c[nH]c2ccccc12)NC(=O)[C@H](CCC(N)=O)NC(=O)[C@H](CCC(N)=O)NC(=O)[C@H]1CCCN1C(=O)[C@@H](N)CCCCN)C(N)=O (H-K[dP]QQ[dW]F[dW]LL-NH2)

Out:
91.4 µM
> 100 µM

* * *

System: CAKI-1 renal
Experiment: NCI tumour cell line growth inhibition, 48 h
Exercise: state measured GI50 for each of the compounds provided.

Provide each entry's GI50 from the list below.
1. CCSc1nc(SCC)c2c(-c3ccc(OC)c(OC)c3)c(C#N)c(SCC)nc2n1
2. Nc1c(C(=O)c2cccc(-c3cccnc3)c2)cnn1-c1ccc(F)cc1F
3. Nc1ncnc2c1c(-c1ccc(Oc3ccccc3)cc1)nn2C[C@@H]1SSC[C@H]1O
4. COc1ccccc1CNCCCN1C(=O)c2ccc3c4c(ccc(c24)C1=O)C(=O)N(CCCN)C3=O
5. Cc1[nH]c2ccc(F)cc2c1-c1nc2c3cccnc3c3ncccc3c2[nH]1

Out:
["5.39 µM", "4.53 µM", "2.18 µM", "1.76 µM", "0.358 µM"]

* * *

System: SR leukemia
Test: NCI tumour cell line growth inhibition, 48 h; in the data active = GI50 below about 0.43 µM; inactive = the rest
Your response should consist of one outcome taken from active, inactive

>>> qualitative_label("COC(=O)C1=C(C)NC(C)=C(C(=O)OCC(C)C)C1c1ccccc1[N+](=O)[O-] (stereo not drawn)")
"inactive"
>>> qualitative_label("Cc1nn(-c2ccc([N+](=O)[O-])cc2)c2ncnc(N/N=C/c3ccccc3O)c12")
"active"
>>> qualitative_label("Cc1nn(C)c(COc2ccc(N3CCN(S(=O)(=O)N(C)C)CC3)cc2)c1-c1cccc2c(CCCOc3cccc4ccccc34)c(C(=O)O)n(CCN3CCOCC3)c12")
"inactive"
>>> qualitative_label("Cc1[nH]c2ccc(F)cc2c1-c1nc2c3cccnc3c3ncccc3c2[nH]1")
"active"
>>> qualitative_label("C#CCNCCN1C(=O)c2ccc3c4c(ccc(c24)C1=O)C(=O)N(CCNCC#C)C3=O")
"inactive"
>>> qualitative_label("O=C1C(SCCO)=C(SCCO)C(=O)N1c1ccc(-c2ccccc2)cc1")
"active"
>>> qualitative_label("C=C1c2ccoc2C[C@H]2[C@H]1CC[C@@]1(O)[C@@](C)(C(=O)OC)CCC[C@]21C")
"inactive"
>>> qualitative_label("CN(C)C(=O)c1cnc2oc3ccc(O)cc3c2c1-c1ccccc1")
"inactive"
>>> qualitative_label("NS(=O)(=O)c1ccc(/C=C/c2ccc(O)cc2)cc1")
"inactive"
>>> qualitative_label("COc1ccc(/C=C(\\C(=O)NCc2cccnc2)S(=O)(=O)c2ccccc2)cc1OC")
"inactive"

In: Hey, what did the test say about COc1ccc(C2=C(c3ccc(OC)c(OC)c3)C(=O)N3CCCC3C2)cc1 (stereo not drawn) ?
Out: inactive

In: Hey, what did the test say about COc1ccc(N(/C=C/C(=O)C(F)(F)F)CC(=O)c2ccc(F)cc2)cc1 ?
Out: inactive

In: Hey, what did the test say about COc1ccc(C2=CC(c3ccc(OC)cc3Br)N3C=CSC3=N2)cc1 (stereo not drawn) ?
Out: inactive
